# measurementNotes: AUC (0 to 6 hrs) in rat at 10 mg/kg, po
# Assay type: ADME, organism-based, Plasma
# Set-up: time < 6 hr, dose 10 mg/kg, route oral
# measurementParameters: plasma
Form field: log10(AUC(0-t) at 6 h) (one value per entry).
Quick note: numbers are log10 of AUC(0-t) at 6 h, with ng·h/mL as the unit.

moleculesmiles=CC1(COc2c(N3CCN(S(=O)(=O)Cc4ccc(N)cc4)CC3)cnn(-c3cccc(Cl)c3)c2=O)CC1 endpointname="log10(AUC(0-t) at 6 h)" assayvalue=3.91

Hello, please tell me recorded log10(AUC(0-t) at 6 h) for this one: `CCc1cc(CS(=O)(=O)N2CCN(c3cnn(-c4cccc(Cl)c4)c(=O)c3OCC3(C)CC3)CC2)ccc1N`
3.97

Hello, please tell me recorded log10(AUC(0-t) at 6 h) for this one: `CC1(COc2c(N3CCN(S(=O)(=O)Cc4ccc(N)c(F)c4)CC3)cnn(-c3cc(F)cc(F)c3)c2=O)CC1`
2.95

Hello, please tell me recorded log10(AUC(0-t) at 6 h) for this one: `O=c1c(OC2CCCC2)c(N2CCN(S(=O)(=O)Cc3ccncc3)CC2)cnn1-c1cc(F)cc(F)c1`
1.30

Hello, please tell me recorded log10(AUC(0-t) at 6 h) for this one: `Cc1cc(CS(=O)(=O)N2CCN(c3cnn(-c4cccc(Cl)c4)c(=O)c3OCC3(C)CC3)CC2)ccc1N`
4.18
